# Subject Of Test: GCase (Homo sapiens, UniProt P04062)
# Construct: endogenous in cells; host or cells: HeLa cells
# Sequence (P04062 40-536): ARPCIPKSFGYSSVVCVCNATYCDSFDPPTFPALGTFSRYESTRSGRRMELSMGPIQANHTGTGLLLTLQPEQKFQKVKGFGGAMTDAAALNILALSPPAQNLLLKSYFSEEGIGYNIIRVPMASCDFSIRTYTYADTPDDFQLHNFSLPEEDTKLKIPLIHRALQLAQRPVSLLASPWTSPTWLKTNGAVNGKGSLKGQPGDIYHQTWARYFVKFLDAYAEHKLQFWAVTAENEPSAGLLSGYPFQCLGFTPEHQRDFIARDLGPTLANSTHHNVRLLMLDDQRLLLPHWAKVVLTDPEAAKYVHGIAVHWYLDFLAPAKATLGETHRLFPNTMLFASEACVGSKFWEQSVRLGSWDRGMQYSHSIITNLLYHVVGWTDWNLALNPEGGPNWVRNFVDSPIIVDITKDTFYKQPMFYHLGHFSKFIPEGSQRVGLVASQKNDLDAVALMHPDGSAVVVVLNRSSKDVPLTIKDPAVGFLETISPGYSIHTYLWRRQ
# Measurement Notes: activation of GCase in a live cell PFB assay in HELA cells
# Type: cell-based
# Condition Info: EC50 given as range classes
pEC50: −log10 of the molar value.
Measurement Type: pEC50

Examples with answers:
Compound	pEC50
O=C1CC2(CN(c3ccnc(C(F)(F)F)c3)C2)CN1c1ncc2cnn(C3COC3)c2n1	4.30 to 5.00
COc1ncc(N2CCC3(CN(c4ccnc(C(F)(F)F)c4)C3)C2)nc1-c1nncs1	4.30 to 5.00
FC(F)(F)Cn1ncc2cnc(N3CCC4(CN(c5cnc(C(F)(F)F)nc5)C4)C3)nc21	> 5.00
Cn1c(N2CCC3(CN(c4ccnc(C(F)(F)F)n4)C3)C2)nc2c(cnn2CC(F)F)c1=O	> 5.00
Cc1cc(CN2CC3(CCN(c4cnc5cnn(CC(F)F)c5n4)CC3)CC2=O)no1	4.30 to 5.00

Task: Requested field: pEC50. Item: Cc1ccc(S(=O)(=O)N2CC3(CCN(c4cnc5cnn(CC(F)F)c5n4)C3)C2)cc1
Output: 4.30 to 5.00

Task: Requested field: pEC50. Item: O=C1N(c2ccc(C(F)(F)F)cn2)CCC12C1CCC2CN(c2cnc3cnn(CC(F)F)c3n2)C1 (centres unmarked)
Output: > 5.00

Task: Requested field: pEC50. Item: O=C1N(c2ccc(C(F)(F)F)cn2)CCC12CCN(c1cnc3cnn(CC(F)F)c3n1)C2 (centres unmarked)
Output: 4.30 to 5.00

Task: Requested field: pEC50. Item: Cc1ccc(N2CC3(CCN(c4cnc5cnn(CC(F)F)c5n4)CC3)CC2=O)c(OC(F)(F)F)n1
Output: > 5.00

Task: Requested field: pEC50. Item: FC(F)Cn1ncc2ncc(N3CCC4(CC3)CC(Nc3ccnc(C(F)(F)F)c3)C4)nc21
Output: 4.30 to 5.00

Task: Requested field: pEC50. Item: Cc1nc(N2CCC3(CC2)CCN(c2cnc4cnn(C5COC5)c4n2)C3)cc(C(F)(F)F)n1
Output: < 4.00

Task: Requested field: pEC50. Item: COc1ncc(N2CC3(CCN(c4cnc5cnn(CC(F)F)c5n4)C3)C2)cn1
Output: 4.00 to 4.30

Task: Requested field: pEC50. Item: Cn1c(=O)n(C2COC2)c2ncc(N3CCC4(CN(c5ccnc(C(F)(F)F)c5)C4)C3)nc21
Output: > 5.00

Task: Requested field: pEC50. Item: FC(F)Cn1ncc2ncc(N3CCCC4(CCN(c5cncc(C(F)(F)F)c5)CC4)C3)nc21
Output: 4.30 to 5.00

Task: Requested field: pEC50. Item: O=C(c1ccccc1C(F)(F)F)N1CC2(CCN(c3cnc4cnn(CC(F)F)c4n3)C2)C1
Output: > 5.00

Task: Requested field: pEC50. Item: Cc1cccc(C(=O)N2CC3(CCN(c4cnc5cnn(CC(F)F)c5n4)C3)C2)c1
Output: > 5.00

Task: Requested field: pEC50. Item: Cn1c(N2CCC3(CN(c4ccc(C(F)(F)F)nc4)C3)C2)nc2c(cnn2CC(F)F)c1=O
Output: > 5.00

Task: Requested field: pEC50. Item: O=C1CC2(CN1c1cnc(C(F)(F)F)cn1)C1CCC2CN(c2cnc3cnn(CC(F)F)c3n2)C1 (centres unmarked)
Output: 4.30 to 5.00
